# test.method.notes: NCI Yeast Anticancer Drug Screen. Data for the wt2 strain (AID 169);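 further: 0% = growth of vehicle-treated yeast cultures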
# condition.notes: S. cerevisiae wt2 strain growth inhibition; at 3.7 µM; hits give high values
The panel holds about 79,000 compounds, 15% with a hit somewhere; the sample as a whole holds those more often. Starred links: 1 amine or outer side, 2 acyl side, 3 side chain; linkers in the order of their positions; H or OH if unused. Positions of bridges follow the written chain, without caps; N, C: chain ends. Non-standard residues stand in square brackets, D forms with d. Residues, ends and D or L forms follow the SMILES beside them. Chains are numbered I, II in the order given. Actinocin(9to1) = Cc1c2oc3c(C)ccc(C(=O)[*:1])c3nc-2c(C(=O)[*:2])c(N)c1=O; aThr = C[C@H](O)[C@H](N)C(=O)O; NMeV = CN[C@H](C(=O)O)C(C)C; Sar = CNCC(=O)O
observation.type: growth inhibition (%)
Give the quantity in %, number only.

For O=Cc1ccccc1B(O)O the molecule record lists growth inhibition as 1

For Cc1c2oc3c(C)ccc(C(=O)N[C@@H]4C(=O)N[C@H](C(C)C)C(=O)N5CCC[C@H]5C(=O)N(C)CC(=O)N(C)[C@@H](C(C)C)C(=O)O[C@H]4C)c3nc-2c(C(=O)N[C@@H]2C(=O)N[C@H](C(C)C)C(=O)N3CCC[C@H]3C(=O)N(C)CC(=O)N(C)[C@@H](C(C)C)C(=O)O[C@H]2C)c(N)c1=O (I: [aThr][dV]P[Sar][NMeV] / II: [aThr][dV]P[Sar][NMeV]; ester I:1-I:C, II:1-II:C; linker I:N-II:N via Actinocin(9to1)) the molecule record lists growth inhibition as 26

For CCCCOc1ccc(Nc2c3ccccc3nc3ccccc23)cc1 the molecule record lists growth inhibition as -10

For O=c1[nH]cc(F)c(=O)[nH]1 the molecule record lists growth inhibition as 17

For CN(C)N=Nc1ccc(NC=O)cc1 the molecule record lists growth inhibition as 9

Further cases:
For Cc1ccc2nc(N/N=C/c3ccc(C)s3)cc(C)c2c1 the molecule record lists growth inhibition as 6

For O=[N+]([O-])c1ccc2nnnn2c1 the molecule record lists growth inhibition as 1

For Cc1cccc(N2CCN(C(=O)/C(=C/c3ccccc3)NC(=O)c3ccccc3)CC2)c1 the molecule record lists growth inhibition as 6
